Value source: PubChem BioAssay (NCI)

# growth values compiled below
Test system: NCI-H322M lung
METHOD SUMMARY: NCI-60 one-dose screen, 48 h (100 = growth as untreated, 0 = no growth, -100 = all killed)
PROTOCOL CONDITIONS: 10 µM unless noted
About 83,000 compounds went through this panel and 20% of them were active in at least one assay; those are over-represented in the sample as a whole.

{"COMPOUND": "COc1ccc2c(c1)O/C(=C/c1ccc(OCC(=O)Nc3ccc(S(N)(=O)=O)cc3)cc1)C2=O", "MEASUREMENT UNIT": "%", "growth": 97.8}
{"COMPOUND": "CC(=O)Nc1ccc([I+]c2ccc([N+](=O)[O-])cc2)cc1", "MEASUREMENT UNIT": "%", "growth": 94.8}
{"COMPOUND": "COc1cc(/C=C/C(=O)N2CCC=CC2=O)cc(OC)c1OC", "MEASUREMENT UNIT": "%", "growth": 84.3}
{"COMPOUND": "O=C(CSc1nnc(-c2ccc(Cl)cc2)o1)Nc1ccc(C(=O)/C=C/c2ccccc2)cc1", "MEASUREMENT UNIT": "%", "growth": 90.5}
{"COMPOUND": "C=C1C(=O)O[C@H]2[C@H]1CC/C(COC(=O)c1ccc(Cl)nc1)=C\\CC[C@@]1(C)O[C@@H]21", "MEASUREMENT UNIT": "%", "growth": 68.4}
{"COMPOUND": "OCc1cn(-c2ccc(Cl)cc2)nc1-c1ccc(O)cc1", "MEASUREMENT UNIT": "%", "growth": 85.8}
{"COMPOUND": "Cc1cc2nc(-c3c(N)ncc(C#N)c3-c3ccc(Cl)cc3)[nH]c2cc1C", "MEASUREMENT UNIT": "%", "growth": 81.1}
{"COMPOUND": "COC(=O)c1oc2c(C(C)=O)c(OCCCN(C)C)ccc2c1C", "MEASUREMENT UNIT": "%", "growth": 82.2}
{"COMPOUND": "S=C=NP1(N=C=S)=NP(N=C=S)(N=C=S)=NP(N=C=S)(N=C=S)=NP(N=C=S)(N=C=S)=N1 (configuration not stated)", "MEASUREMENT UNIT": "%", "growth": 80.9}
{"COMPOUND": "CCNC(=O)Oc1ccc(/C(=C(/CC)Cc2ccccc2)c2ccc(OCCN3CCOCC3)cc2)cc1", "MEASUREMENT UNIT": "%", "growth": 72.8}
{"COMPOUND": "OC(COc1ccccc1Cl)CN1CCN(c2ccc(Cl)cc2)CC1 (configuration not stated)", "MEASUREMENT UNIT": "%", "growth": 101}
{"COMPOUND": "CCN(CC)C(=O)C1CCN(C(=O)c2ccccc2)CC1", "MEASUREMENT UNIT": "%", "growth": 99.4}
{"COMPOUND": "CCn1cc(/C=C2\\Oc3cc(OCC#N)ccc3C2=O)c2cc(OC)ccc21", "MEASUREMENT UNIT": "%", "growth": 49.3}
{"COMPOUND": "CCCCCCCCN(CCCCCCCC)CC(O)c1cc(-c2ccccc2)nc2ccc(OC)cc12 (configuration not stated)", "MEASUREMENT UNIT": "%", "growth": 106}
{"COMPOUND": "NCC(=O)NS(=O)(=O)OC[C@H]1O[C@@H](n2cnc3c(N)ncnc32)[C@H](O)[C@@H]1O", "MEASUREMENT UNIT": "%", "growth": -1.74}
{"COMPOUND": "CCn1cc(C(=O)O)c(=O)c2cc(F)c(N3CCN(CC(=O)Nc4ccc(C(C)=O)cc4)CC3)cc21", "MEASUREMENT UNIT": "%", "growth": 101}
{"COMPOUND": "COc1cc2ncnc(Oc3ccc(NC(=O)Nc4ccc(CN5CCOCC5)c(C(F)(F)F)c4)c4ccccc34)c2cc1OC", "MEASUREMENT UNIT": "%", "growth": 19.3}
{"COMPOUND": "COc1ccc(-c2nn(-c3ccc(NC(=O)Nc4cc(C(F)(F)F)cc(C(F)(F)F)c4)cc3)cc2-c2ccncc2)cc1Cl", "MEASUREMENT UNIT": "%", "growth": 30.9}
{"COMPOUND": "O=C(c1ccccc1)[C@H]1[C@@H]2CCCN2[C@]2(C(=O)Nc3ccc(F)cc32)[C@]12C(=O)Nc1ccccc12", "MEASUREMENT UNIT": "%", "growth": 97}
{"COMPOUND": "Cn1c2ccccc2c2ssc(=S)c21", "MEASUREMENT UNIT": "%", "growth": 89.9}
{"COMPOUND": "O=C(Nc1ccc(-n2ccc3c(NC(=O)c4ccccc4)ncnc32)cc1)Nc1cccc(Cl)c1Cl", "MEASUREMENT UNIT": "%", "growth": 43.9}
{"COMPOUND": "Cc1cccc(CC(=O)c2ccccc2)n1", "MEASUREMENT UNIT": "%", "growth": 87.3}
{"COMPOUND": "CCc1c(C)c2cc3nc(NCc4ccccc4)oc3c(C)c2oc1=O", "MEASUREMENT UNIT": "%", "growth": 70.2}
{"COMPOUND": "CC[C@H]1[C@@H]2C=C[C@@H]3[C@H]4C/C=C\\C(=O)NCCC[C@@H]5NC(=O)/C(=C(O)/C=C/[C@@H]4C[C@@H]3[C@H]2C[C@H]1C)C5=O", "MEASUREMENT UNIT": "%", "growth": 35.7}
{"COMPOUND": "C=C1C(=O)O[C@H]2[C@H]1CC/C(COC(=O)OC/C1=C/CC[C@@]3(C)O[C@H]3[C@H]3OC(=O)[C@@H](CN(C)C)[C@@H]3CC1)=C\\CC[C@@]1(C)O[C@@H]21", "MEASUREMENT UNIT": "%", "growth": 88}
{"COMPOUND": "O=C(O)c1ccc(-c2nn(-c3ccc(C(=O)O)cc3)cc2/C=N/Nc2c(F)c(F)cc(F)c2F)cc1", "MEASUREMENT UNIT": "%", "growth": 99.9}
{"COMPOUND": "COc1ccc(/C=C2/C(=O)Nc3cc(Cl)c(-c4csc(N)n4)cc32)cc1", "MEASUREMENT UNIT": "%", "growth": 68.3}
{"COMPOUND": "O=C(NCCNc1nccc(-c2c(-c3cccc(O)c3)nc3sccn23)n1)c1cccc(C(F)(F)F)c1", "MEASUREMENT UNIT": "%", "growth": 103}
{"COMPOUND": "O=C(Nc1ccc(F)cc1)Nc1ccc(Cl)c([N+](=O)[O-])c1", "MEASUREMENT UNIT": "%", "growth": 28.4}
{"COMPOUND": "Nc1nc2ccc(CNc3ccc(C(=O)NC(CC(=O)O)C(=O)O)cc3)cc2c(=O)[nH]1 (configuration not stated)", "MEASUREMENT UNIT": "%", "growth": 55.7}
{"COMPOUND": "CSc1nc(N)nc2c1ncn2C", "MEASUREMENT UNIT": "%", "growth": 104}
{"COMPOUND": "CC(C)(C)C(=O)Nc1nc2c(s1)CCc1ccn(S(=O)(=O)c3ccccc3)c1-2", "MEASUREMENT UNIT": "%", "growth": 83.3}
{"COMPOUND": "O=C(NCCNc1nccc(-c2c(-c3cccc(O)c3)nc3sccn23)n1)c1ccccc1", "MEASUREMENT UNIT": "%", "growth": 101}
{"COMPOUND": "COc1ccc(C(=O)NC(=O)Nc2ccc3c(c2)NC(=O)/C3=C\\c2[nH]c(C)c(C(=O)O)c2C)cc1", "MEASUREMENT UNIT": "%", "growth": 94.2}
{"COMPOUND": "CS(=O)(=O)Nc1cccc(-c2ccc3ncnc(Nc4ccc(F)c(Cl)c4)c3c2)c1", "MEASUREMENT UNIT": "%", "growth": 15}
{"COMPOUND": "COc1ccc(/C=C/C(=O)c2ccc(NC(=O)CSc3nnc(-c4cc(OC)c(OC)c(OC)c4)o3)cc2)cc1", "MEASUREMENT UNIT": "%", "growth": 20.2}
{"COMPOUND": "CCc1c(C)c2cc3c(c(C)c2oc1=O)OCC(=O)N3", "MEASUREMENT UNIT": "%", "growth": 60.7}
